Reported EC50 by item:
- ASSAYED SYSTEM: T1, human IGF-1R (native, on cells) (human, UniProt P08069 31-1367)
- T1 construct: also called hIGF-1R; native IGF-1R on MCF-7 cells
- EXPERIMENT SUMMARY: FACS titration, MCF-7
Write it as a number; the unit nM goes unstated.

BINDER	EC50 (nM)
hz208F2 H070/L018 (antibody, human IgG1, kappa, V domains shown, humanized 208F2 variant) VH: QVQLVQSGAEVKKPGASVKVSCKASGYTFTSYYMHWVRQAPGQGLEWMGWIWPGDGSTKYAQKFQGRVTMTRDTSTSTVYMELSSLRSEDTAVYYCASPMITPNYAMDYWGQGTLVTVSS VL: DIQMTQSPSSLSASVGDRVTITCRASQDISKYLNWYQQKPGKAPKLLIYYTSRLQSGVPSRFSGRGSGTDYSLTISSLQPEDFATYFCQQGSTLPYTFGGGTKVEIKR	0.46
hz208F2 H051/L018 (antibody, human IgG1, kappa, V domains shown, humanized 208F2 variant) VH: QVQLVQSGAEVKKPGASVKVSCKASGYTFTSYYMHWVRQAPGQGLEWMGWIWPGDGSTKYAQKFQGRVTMTRDTSSNTVYMELSSLRSEDTAVYFCASPMITPNYAMDYWGQGTLVTVSS VL: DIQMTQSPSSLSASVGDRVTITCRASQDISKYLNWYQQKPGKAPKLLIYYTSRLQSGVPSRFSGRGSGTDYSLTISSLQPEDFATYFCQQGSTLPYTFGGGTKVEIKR	0.57
hz208F2 H057/L018 (antibody, human IgG1, kappa, V domains shown, humanized 208F2 variant) VH: QVQLVQSGAEVKKPGASVKVSCKASGYTFTSYYIHWVRQAPGQGLEWMGWIWPGDGSTKYAQKFQGRVTMTRDKSTNTVYMELSSLRSEDTAVYYCASPMITPNYAMDYWGQGTLVTVSS VL: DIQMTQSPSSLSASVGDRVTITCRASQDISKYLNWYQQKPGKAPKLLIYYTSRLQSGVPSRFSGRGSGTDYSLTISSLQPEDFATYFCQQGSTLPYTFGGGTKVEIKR	0.58
hz208F2 H052/L018 (antibody, human IgG1, kappa, V domains shown, humanized 208F2 variant) VH: QVQLVQSGAEVKKPGASVKVSCKASGYTFTSYYMHWVRQAPGQGLEWMGWIWPGDGSTKYAQKFQGRVTMTRDTSTSTVYMELSSLRSEDTAVYFCASPMITPNYAMDYWGQGTLVTVSS VL: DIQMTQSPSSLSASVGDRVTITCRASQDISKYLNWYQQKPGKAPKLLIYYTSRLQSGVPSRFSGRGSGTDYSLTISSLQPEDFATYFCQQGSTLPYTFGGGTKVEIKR	0.84

Prompt: GET /values?readout=EC50&item= hz208F2 H049/L018 (antibody, human IgG1, kappa, V domains shown, humanized 208F2 variant) VH: QVQLVQSGAEVKKPGASVKVSCKASGYTFTSYYMHWVRQAPGQGLEWMGWIWPGDGSTKYAQKFQGRVTMTRDKSSSTVYMELSSLRSEDTAVYYCASPMITPNYAMDYWGQGTLVTVSS VL: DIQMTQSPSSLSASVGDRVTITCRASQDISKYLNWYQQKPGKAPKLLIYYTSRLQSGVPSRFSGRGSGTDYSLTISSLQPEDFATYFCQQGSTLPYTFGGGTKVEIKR
Completion: 0.49

These measurements were taken from patent US20170267766A1.
